Record form. Attribute: gcPBM binding intensity (ln). Fill in for each entry.
Tested on: PF3D7_0420300 AP2 domain 1 (GST-tagged)
Method description: gcPBM binding intensity (ln(normalized median fluorescence intensity)); higher = stronger DNA binding
The full ranking holds about 25,000 sequences; the median of “ln(normalized median fluorescence intensity)” is about 9.3, and the highest 2% start at about 10. This is one part of a sample in which the highest values are shown more often than they occur.
One number for each entry.

In the examples that follow, each entry is paired with its recorded gcPBM binding intensity (ln).
# lookup: gcPBM binding intensity (ln) of TTAATATAAGCAAATACACACACACCGATATATATA [CACACA_site9269]
10.2

Consider next the sequence ATAAATAAATAAATAAATAAATATACATATACATAT [CACACA_negctrl_site205] in the same way.
9.39

Consider next the sequence CTAGCAAATACATACACACACACACCGATACAGATA [CACACA_site5853] in the same way.
10.2

Consider next the sequence AATATATACATACATACATGCATACATATATATAAC [TGCATGCA_site371] in the same way.
9.37

Consider next the sequence TAGAAGCATGGACACACACACATACATACCCATACA [CACACA_site4916] in the same way.
10

Others:
# lookup: gcPBM binding intensity (ln) of ATACATATATATAGGTGTACATATAATATATATATA [XGTACX_site2228]
9.35

###

Tested on: PF3D7_0420300 AP2 domain 1 (GST-tagged)
Method description: gcPBM binding intensity (ln(normalized median fluorescence intensity)); higher = stronger DNA binding
Over roughly 25,000 sequences, “ln(normalized median fluorescence intensity)” has its median near 9.3; the highest 2% begin near 10. Many of the other results were omitted from the sample, so the highest values are more common in it than they were.
Record form. Attribute: gcPBM binding intensity (ln). Fill in for each entry.
Numbers only.

# lookup: gcPBM binding intensity (ln) of AAAATAAAATAAAACACAAAAAAATAAAACAAAATA [CACACA_negctrl_site16]
9.8

Consider next the sequence TCATTTCACGGACACACACACACAATATATTTCCTT [CACACA_site6023] in the same way.
10.2

Consider next the sequence TATATATTAAACTTTGCACACATAATTTAACTACAA [CACACA_site3440] in the same way.
9.4

Consider next the sequence ATAATTAACAAATACACACACACACGCCCACAAAAA [CACACA_site6389] in the same way.
10.2

Consider next the sequence AATATATATAAATAAACACACACAAATATAATAAAA [CACACA_site9176] in the same way.
10.2

Consider next the sequence TATTAATACAGACACACACACACACCCAATAAAATA [CACACA_site243] in the same way.
10.1

Dear colleague, could you send me gcPBM binding intensity (ln) for each of the items below? Thanks.
1. TTTTGTTAAAAAGATGTATATTTTATAAATATTTAT [CACACA_negctrl_site101]
2. ATATATGGGGCGCAGGAAAAGAGTTTTGGAAATAAA [CACACA_negctrl_site1265]

8.92
9.2

Dear colleague, could you send me gcPBM binding intensity (ln) for each of the items below? Thanks.
1. CATACAGATATATATACACACATACAGATAAATACA [CACACA_site4592]
2. TATTTTTTATGATTAACACACACACTAATAAAAAAA [CACACA_site9370]
3. TTTTTATTTATTAATACACACACACCCACCCACAAA [CACACA_site7965]

1. 9.83
2. 9.77
3. 10.1

Dear colleague, could you send me gcPBM binding intensity (ln) for each of the items below? Thanks.
1. ACAAAATAAAAACACACACACAAACACAAAAAAATA [CACACA_site3390]
2. AATTAATAACAAAATAAACACACATATATAAATACA [CACACA_site8456]
3. TGCAAGGAACAACACACACACACATAAATGTATATA [CACACA_site8149]
4. TTTACTTTCCCAAGTTGTACTGCTTCTAAGCTTTTT [XGTACX_site2708]

1: 10.3; 2: 9.84; 3: 10.2; 4: 9.21

# lookup: gcPBM binding intensity (ln) of `GACAATTATATGTAGGTGCATATACAAATTTTTTAA`
9.11

###

System: PF3D7_0420300 AP2 domain 1 (GST-tagged)
Method description: gcPBM binding intensity (ln(normalized median fluorescence intensity)); higher = stronger DNA binding
Over roughly 25,000 sequences, “ln(normalized median fluorescence intensity)” has its median near 9.3; the highest 2% begin near 10. The list comes from a sample in which the highest values are over-represented; it also holds close analogues and randomly drawn sequences.
Rule: 1 for gcPBM binding intensity (ln) not less than 10, -1 for anything less.

Check if gcPBM binding intensity (ln) >= 10 (inclusive). Item: ATAATATAACACAAATGTACAAAAAATAAATAAATA [XGTACX_site385]
-1

Consider next the sequence AAATATATTATAAATTGTACGTTTATATATATTATT [XGTACX_site5110] in the same way.
-1

Consider next the sequence AAAAATAAATAAGACACACACAAAAAAAAAAAAAAA [CACACA_site1432] in the same way.
-1

Consider next the sequence TAATTTTCTTTTTATCGTTTTTTTTTTTTTTTTTTT [XGTACX_negctrl_site432] in the same way.
-1

Others:
Check if gcPBM binding intensity (ln) >= 10 (inclusive). Item: AAAAAAAAAAGACACACACACAAAATAAACAAACAA [CACACA_site7308]
1

Consider next the sequence AAAAAAAACATACATACACACACATAAATATATATA [CACACA_site8864] in the same way.
1

Consider next the sequence TTAGGCAAGGCGGGGGGTACGTTTTTATATAATTAT [XGTACX_site8029] in the same way.
1

###

Test system: PF3D7_0420300 AP2 domain 1 (GST-tagged)
Method description: gcPBM binding intensity (ln(normalized median fluorescence intensity)); higher = stronger DNA binding
Over roughly 25,000 sequences, “ln(normalized median fluorescence intensity)” has its median near 9.3; the highest 2% begin near 10. Only a selection was taken, and the highest values are over-represented in it overall.
Measured parameter: gcPBM binding intensity (ln)
Answers are plain numbers.

In the examples that follow, each entry is paired with its recorded gcPBM binding intensity (ln).
# lookup: gcPBM binding intensity (ln) of TGATGATATAAAAACACACACATATAATATAATACT [CACACA_site1208]
10

Consider next the sequence GTACACATATATATATATATATATATATATATATAT [CACACA_negctrl_site800] in the same way.
9.25

Consider next the sequence TATATAAATAAACACACACACACCTTATAATTATTA [CACACA_site9345] in the same way.
9.93

Consider next the sequence AAAAAAAAAAATATCACACACACATAAATATAAACA [CACACA_site7138] in the same way.
10.1

Consider next the sequence CATACATACAAACACACACACACACCCATATATATA [CACACA_site2918] in the same way.
10.4

Dear colleague, could you send me gcPBM binding intensity (ln) for each of the items below? Thanks.
1. TTAACAAATAAACACACACACACACCCAAAAAAAAA [CACACA_site8068]
2. ATATATATGGAAACAGTGCAATACATATATATATAT

1: 10.1; 2: 9.71

###

System: PF3D7_0420300 AP2 domain 1 (GST-tagged)
Method description: gcPBM binding intensity (ln(normalized median fluorescence intensity)); higher = stronger DNA binding
In all, about 25,000 sequences were measured (“ln(normalized median fluorescence intensity)”: median about 9.3, highest 2% from about 10 on). The list comes from a sample in which the highest values are over-represented; it also holds close analogues and randomly drawn sequences.
Record form. Attribute: gcPBM binding intensity (ln). Fill in for each entry.
Numbers only.

Dear colleague, could you send me gcPBM binding intensity (ln) for each of the items below? Thanks.
1. TCCTACATATAAAAATGTACCCATTGTTTTTTTTTT [XGTACX_site7205]
2. TACAGACAGAAATGCACACACATATTTATATTTATA [CACACA_site7139]
3. TTGTTCCACAAAAATTTAGTCAAAAAAAAATAAAAA [TGCATGCA_negctrl_site546]
4. ATTGTGCTCATCAGCACACACAACATCATGTAATAA [CACACA_site1863]

9.11
9.75
8.79
9.47

###

System: PF3D7_0420300 AP2 domain 1 (GST-tagged)
Method description: gcPBM binding intensity (ln(normalized median fluorescence intensity)); higher = stronger DNA binding
Whole data set: some 25,000 sequences, median “ln(normalized median fluorescence intensity)” near 9.3, cut for the highest 2% near 10. Shown is part of a subset that was picked to be rich in the highest values.
Measured parameter: gcPBM binding intensity (ln)

In the examples that follow, each entry is paired with its recorded gcPBM binding intensity (ln).
# lookup: gcPBM binding intensity (ln) of CATAAAAATTGAAGCACACACACAAAAGAAATACAA [CACACA_site1112]
10.2

Consider next the sequence AAAAAACAGACATACACACACACACCCATATATATA [CACACA_site3392] in the same way.
10.2

Dear colleague, could you send me gcPBM binding intensity (ln) for each of the items below? Thanks.
1. TAAAAATTGAAGCACACACACAAAAGAAATACAATA [CACACA_site1113]
2. AACATAAAAATTGAAGCACACACACTAATGAAATAC [CACACA_site8287]
3. CACAGACACCCATACACACACATACCCATATATATA [CACACA_site5023]
4. ATCCTACTATGTTATACACACAATTACTTTTTTCTC [CACACA_site3712]
5. TTGGTTATACAACACATGCACACGTAAATAAATATT [CACACA_site3841]
6. AAGCACAAAAAATACACACACAAAAAATAAAAAAAG [CACACA_site1840]
7. GTATATATATATATATGTACTAATTAGTAGTTTACG [XGTACX_site6274]

10.2
10.2
10
9.86
9.38
10.1
9.25
